# ASSAYED TARGET: Amine oxidase [flavin-containing] B (Homo sapiens, UniProt P27338)
# Sequence (P27338 whole entry): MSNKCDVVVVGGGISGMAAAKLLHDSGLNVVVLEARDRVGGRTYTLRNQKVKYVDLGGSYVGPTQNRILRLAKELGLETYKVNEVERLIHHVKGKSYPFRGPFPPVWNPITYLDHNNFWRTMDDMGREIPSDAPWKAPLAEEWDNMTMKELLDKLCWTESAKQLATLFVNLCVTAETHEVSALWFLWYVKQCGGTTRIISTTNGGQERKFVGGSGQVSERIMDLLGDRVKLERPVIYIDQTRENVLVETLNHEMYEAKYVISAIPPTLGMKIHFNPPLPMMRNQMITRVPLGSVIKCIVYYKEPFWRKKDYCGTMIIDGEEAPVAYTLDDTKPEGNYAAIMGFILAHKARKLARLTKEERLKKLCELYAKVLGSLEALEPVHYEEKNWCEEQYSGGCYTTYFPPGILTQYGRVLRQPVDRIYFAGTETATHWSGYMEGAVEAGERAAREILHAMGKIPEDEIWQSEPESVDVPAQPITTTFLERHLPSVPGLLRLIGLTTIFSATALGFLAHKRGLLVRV
# ASSAY METHOD TEXT: biochemical
# Description: Inhibition of human recombinant MAO-B expressed in baculovirus infected BTI-TN-5B1-4 cells assessed as production of hydrogen peroxide from p-tyramine after 15 mins by microplate fluorescence assay
OBSERVATION TYPE: IC50
Include the unit after the number when you answer.

Given the entry `CCOC(=O)c1cc2ccc(OC)cc2oc1=O` , report its measured IC50.
23.5 µM

Then this compound: `CCOC(=O)c1cc2ccc(OCc3cccc(Cl)c3)cc2oc1=O`
0.0612 µM

// same read-out, input: `CC(=O)c1cc2cc(Cl)ccc2oc1=O`
17.7 µM

Query `CCOC(=O)c1cc2cc(Cl)cc(Br)c2oc1=O` next
17.5 µM

Continue with `CCN(CC)c1ccc2cc(C(=O)c3ccccc3)c(=O)oc2c1`
23.8 µM

Continue with `CC(=O)c1cc2cccc(O)c2oc1=O`
42.1 µM

How about `CC(=O)c1cc2cc(Br)cc(Br)c2oc1=O` ?
0.2 µM

Subsequent entry: `NNC(=O)c1cc2ccccc2oc1=O`
0.00322 µM

Moving on to `O=C(O)c1cc2ccc(OCc3cccc(Cl)c3)cc2oc1=O`
1.8 µM

One more compound: `COc1ccc2cc(C(C)=O)c(=O)oc2c1`
15.4 µM

Query `CCOC(=O)c1cc2ccc(OCc3ccccc3)cc2oc1=O` next
0.00701 µM

Item: `O=C(O)c1cc2ccc(OCc3ccc(Cl)c(Cl)c3)cc2oc1=O`
0.41 µM

Entry `O=C(c1ccccc1)c1cc2cc(O)ccc2oc1=O` please
18 µM
